test system: DU-145 prostate; test: NCI tumour cell line growth inhibition, 48 h
QUANTITY: TGI

molecule=COc1cc(OC)c(-c2cc(=O)c3c(OC)c(OC)c(OC)c(OC)c3o2)cc1OC system_under_test="DU-145 prostate" quantity=TGI recorded_result="> 100 µM"
molecule="CC(C)CN1CN(c2ccccc2)C2(CCN(CC(C)(c3ccc(F)cc3)C3OCCO3)CC2)C1=O (stereo unspecified)" system_under_test="DU-145 prostate" quantity=TGI recorded_result="14.8 µM"
molecule="CC1C(c2ccc(N(C)C)cc2)c2cc3c(cc2OC1N1CCCC1)OCO3 (stereo unspecified)" system_under_test="DU-145 prostate" quantity=TGI recorded_result="> 100 µM"
molecule="CC(C)C1CN1CC(O)Cn1ccnc1[N+](=O)[O-] (stereo unspecified)" system_under_test="DU-145 prostate" quantity=TGI recorded_result="> 100 µM"
molecule=COc1ccc2c(c1O)-c1c(OC)c(OC)cc3c1[C@H](C2)[N+](C)(C)CC3 system_under_test="DU-145 prostate" quantity=TGI recorded_result="> 100 µM"
molecule=COC(=O)[C@]1(C)CCCn2c(=O)n(-c3ccccc3)c(=O)n21 system_under_test="DU-145 prostate" quantity=TGI recorded_result="> 100 µM"
molecule=O=S(=O)(O)c1ccc(NN(c2c(O)ccc3ccccc23)S(=O)(=O)O)cc1 system_under_test="DU-145 prostate" quantity=TGI recorded_result="> 100 µM"
molecule=c1ccc2c(c1)O[As](O[As]1Oc3ccccc3O1)O2 system_under_test="DU-145 prostate" quantity=TGI recorded_result="15.2 µM"
molecule=Nc1ccccc1C#C/C=C\C#Cc1ccc(F)cc1F system_under_test="DU-145 prostate" quantity=TGI recorded_result="33.8 µM"
molecule="O=C1CC(NC(=O)C(F)(F)F)c2c(Br)sc(N3CCC(c4ccccc4)CC3)c21 (stereo unspecified)" system_under_test="DU-145 prostate" quantity=TGI recorded_result="> 100 µM"
molecule=COc1ccc(CN2C(=O)CCC/C=C\[C@H]2CI)cc1 system_under_test="DU-145 prostate" quantity=TGI recorded_result="26 µM"
